// provenance: ChEMBL document CHEMBL1201862

Each record here notes measured GI50.
- System: RPMI-8226
- method summary: NCI tumour cell line growth inhibition, 48 h
Activity calls are given as the source filed them. Cut-off read from the data, not from the text of the source: active = GI50 up to about 1.1 µM and inactive = higher.

Input: Return reported GI50; argument: `O=C1NNC2(C(=O)N1)c1ccccc1-c1ccccc12`
Output: > 10 µM (inactive)

Input: Now try `COc1cc2c(cc1C)NC(=O)/C2=C/c1c(Cl)n(C)c2ccccc12` .
Output: 3.13 µM (inactive)

Input: Now try CCCCCCCCOP(=O)(O)OP(=O)(O)OCC1OC(n2ccc(N)nc2=O)C(O)C1O (centres undefined) .
Output: > 100 µM (inactive)

Input: Now try `Cc1ccc(/C=c2\c(=O)[nH]c3nc4ccccc4c(=O)n23)cc1` .
Output: 22.9 µM (inactive)
